Molecular target: Serine/threonine-protein kinase/endoribonuclease IRE1 (Homo sapiens, UniProt O75460)
Sequence (O75460 whole entry): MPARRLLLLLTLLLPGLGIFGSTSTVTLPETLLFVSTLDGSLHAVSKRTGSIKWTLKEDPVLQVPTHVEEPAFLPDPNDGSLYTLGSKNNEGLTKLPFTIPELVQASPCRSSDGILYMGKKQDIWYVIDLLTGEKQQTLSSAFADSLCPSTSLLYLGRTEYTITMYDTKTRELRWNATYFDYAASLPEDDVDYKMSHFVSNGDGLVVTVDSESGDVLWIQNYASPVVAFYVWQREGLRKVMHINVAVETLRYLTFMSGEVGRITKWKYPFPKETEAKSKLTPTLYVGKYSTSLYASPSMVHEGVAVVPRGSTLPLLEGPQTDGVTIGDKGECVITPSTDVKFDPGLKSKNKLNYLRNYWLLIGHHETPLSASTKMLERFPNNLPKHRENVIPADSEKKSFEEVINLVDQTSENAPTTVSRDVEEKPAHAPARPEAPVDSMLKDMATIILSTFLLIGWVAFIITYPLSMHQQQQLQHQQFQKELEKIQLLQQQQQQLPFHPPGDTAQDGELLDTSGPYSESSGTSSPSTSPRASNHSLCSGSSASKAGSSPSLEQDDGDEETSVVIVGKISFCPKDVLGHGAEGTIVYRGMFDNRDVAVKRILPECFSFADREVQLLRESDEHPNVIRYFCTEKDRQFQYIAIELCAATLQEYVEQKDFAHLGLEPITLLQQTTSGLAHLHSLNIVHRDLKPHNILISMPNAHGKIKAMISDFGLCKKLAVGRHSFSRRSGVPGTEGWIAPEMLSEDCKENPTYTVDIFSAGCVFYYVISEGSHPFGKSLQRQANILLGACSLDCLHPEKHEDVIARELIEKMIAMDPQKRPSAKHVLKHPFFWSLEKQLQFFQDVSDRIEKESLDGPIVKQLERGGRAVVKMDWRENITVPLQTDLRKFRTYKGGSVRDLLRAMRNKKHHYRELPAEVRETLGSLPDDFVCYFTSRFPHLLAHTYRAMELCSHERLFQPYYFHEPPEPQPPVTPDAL
Experiment: Inhibition of human recombinant puritin-His-tagged IRE-1 RNase expressed in SF21 cells using XBP-1 RNA stem loop as substrate incubated for 30 mins prior to substrate addition measured after 2 hrs by FRET-suppression assay
measured-attribute: IC50

Q: Please indicate IC50 recorded for C=CCOC(=O)N1CCc2c(c(=O)oc3c(C=O)c(OCc4ccccc4)ccc23)C1
Ans: > 20 µM

Reference for the values: ChEMBL document CHEMBL3259679
